The compounds listed here are annotated with their AC50.
- study-target: D(1A) dopamine receptor (Homo sapiens, UniProt P21728); also: assay procedure not described here
- Sequence (P21728 whole entry): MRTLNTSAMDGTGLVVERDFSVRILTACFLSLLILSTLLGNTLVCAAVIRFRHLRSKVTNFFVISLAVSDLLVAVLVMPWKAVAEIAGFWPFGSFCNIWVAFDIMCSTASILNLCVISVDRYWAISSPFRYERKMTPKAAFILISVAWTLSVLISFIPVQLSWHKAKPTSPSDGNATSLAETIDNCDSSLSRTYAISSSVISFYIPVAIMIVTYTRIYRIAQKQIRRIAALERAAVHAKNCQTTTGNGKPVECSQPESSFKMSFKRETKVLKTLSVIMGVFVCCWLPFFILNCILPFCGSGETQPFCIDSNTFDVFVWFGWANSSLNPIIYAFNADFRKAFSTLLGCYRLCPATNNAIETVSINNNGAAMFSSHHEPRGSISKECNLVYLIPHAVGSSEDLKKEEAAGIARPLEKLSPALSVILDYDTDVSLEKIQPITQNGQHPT
- Type: functional, cell-based
recorded-metric: AC50

compound: COc1ccc2c3c1O[C@H]1[C@@H](O)CC[C@H]4[C@@H](C2)N(C)CC[C@@]341 [DIHYDROCODEINE]
study-target: D(1A) dopamine receptor (Homo sapiens, UniProt P21728); also: assay procedure not described here
measured-result: > 30 µM

compound: Nc1nc(N)nc(-c2cc(Cl)ccc2Cl)n1 [IRSOGLADINE]
study-target: D(1A) dopamine receptor (Homo sapiens, UniProt P21728); also: assay procedure not described here
measured-result: > 30 µM

compound: Cc1ccc(-n2nccn2)c(C(=O)N2CCN(c3nc4cc(Cl)ccc4o3)CC[C@H]2C)c1 [SUVOREXANT]
study-target: D(1A) dopamine receptor (Homo sapiens, UniProt P21728); also: assay procedure not described here
measured-result: > 30 µM

compound: CC(C[N+](C)(C)C)OC(N)=O (centres undefined) [BETHANECHOL]
study-target: D(1A) dopamine receptor (Homo sapiens, UniProt P21728); also: assay procedure not described here
measured-result: > 10 µM

compound: C[C@]1(O)CC[C@H]2[C@@H]3CCC4=CC(=O)CC[C@]4(C)[C@@]3(F)[C@@H](O)C[C@@]21C [FLUOXYMESTERONE]
study-target: D(1A) dopamine receptor (Homo sapiens, UniProt P21728); also: assay procedure not described here
measured-result: > 30 µM

compound: Brc1c(NC2=NCCN2)ccc2nccnc12 [BRIMONIDINE]
study-target: D(1A) dopamine receptor (Homo sapiens, UniProt P21728); also: assay procedure not described here
measured-result: > 30 µM

compound: COc1cc2nc(N(C)CCCNC(=O)C3CCCO3)nc(N)c2cc1OC (centres undefined) [ALFUZOSIN]
study-target: D(1A) dopamine receptor (Homo sapiens, UniProt P21728); also: assay procedure not described here
measured-result: > 30 µM

compound: O=C(O)CCCCCCCC(=O)O [AZELAIC ACID]
study-target: D(1A) dopamine receptor (Homo sapiens, UniProt P21728); also: assay procedure not described here
measured-result: > 30 µM

compound: CCOC(=O)[C@H](CCc1ccccc1)N[C@@H](C)C(=O)N1C(=O)N(C)C[C@H]1C(=O)O
study-target: D(1A) dopamine receptor (Homo sapiens, UniProt P21728); also: assay procedure not described here
measured-result: > 30 µM

compound: Cc1nnc2n1-c1ccc(Cl)cc1C(c1ccccc1Cl)=NC2 [TRIAZOLAM]
study-target: D(1A) dopamine receptor (Homo sapiens, UniProt P21728); also: assay procedure not described here
measured-result: > 10 µM

compound: CN1CCN(CC/C=C2/c3ccccc3Sc3ccc(S(=O)(=O)N(C)C)cc32)CC1 [THIOTHIXENE]
study-target: D(1A) dopamine receptor (Homo sapiens, UniProt P21728); also: assay procedure not described here
measured-result: > 30 µM

compound: CNC1Cc2ccccc2N(C)c2ccccc21 (centres undefined) [METAPRAMINE]
study-target: D(1A) dopamine receptor (Homo sapiens, UniProt P21728); also: assay procedure not described here
measured-result: > 30 µM

compound: CCOc1ccccc1OCC1CNCCO1 (centres undefined) [VILOXAZINE]
study-target: D(1A) dopamine receptor (Homo sapiens, UniProt P21728); also: assay procedure not described here
measured-result: > 10 µM

compound: Clc1ccc(C(c2ccccc2Cl)C(Cl)Cl)cc1 (centres undefined) [MITOTANE]
study-target: D(1A) dopamine receptor (Homo sapiens, UniProt P21728); also: assay procedure not described here
measured-result: > 10 µM

compound: NCC(=O)CCC(=O)O [AMINOLEVULINIC ACID]
study-target: D(1A) dopamine receptor (Homo sapiens, UniProt P21728); also: assay procedure not described here
measured-result: > 30 µM

compound: CC(C)OC(=O)CCC/C=C\C[C@@H]1[C@@H](CC[C@@H](O)CCc2ccccc2)[C@H](O)C[C@@H]1O [LATANOPROST]
study-target: D(1A) dopamine receptor (Homo sapiens, UniProt P21728); also: assay procedure not described here
measured-result: > 30 µM

compound: COC1=C(OC)C(=O)C(C/C=C(\C)CC/C=C(\C)CC/C=C(\C)CC/C=C(\C)CC/C=C(\C)CC/C=C(\C)CC/C=C(\C)CC/C=C(\C)CC/C=C(\C)CCC=C(C)C)=C(C)C1=O [UBIDECARENONE]
study-target: D(1A) dopamine receptor (Homo sapiens, UniProt P21728); also: assay procedure not described here
measured-result: > 30 µM

compound: CC(C)C(=O)c1c(C(C)C)nn2ccccc12 [IBUDILAST]
study-target: D(1A) dopamine receptor (Homo sapiens, UniProt P21728); also: assay procedure not described here
measured-result: > 30 µM

compound: O=C1Nc2ccc(Cl)cc2[C@@](C#CC2CC2)(C(F)(F)F)O1 [EFAVIRENZ]
study-target: D(1A) dopamine receptor (Homo sapiens, UniProt P21728); also: assay procedure not described here
measured-result: > 30 µM
